assay.target: Amyloid-beta precursor protein (Homo sapiens) (UniProt P05067)
Sequence (P05067 whole entry): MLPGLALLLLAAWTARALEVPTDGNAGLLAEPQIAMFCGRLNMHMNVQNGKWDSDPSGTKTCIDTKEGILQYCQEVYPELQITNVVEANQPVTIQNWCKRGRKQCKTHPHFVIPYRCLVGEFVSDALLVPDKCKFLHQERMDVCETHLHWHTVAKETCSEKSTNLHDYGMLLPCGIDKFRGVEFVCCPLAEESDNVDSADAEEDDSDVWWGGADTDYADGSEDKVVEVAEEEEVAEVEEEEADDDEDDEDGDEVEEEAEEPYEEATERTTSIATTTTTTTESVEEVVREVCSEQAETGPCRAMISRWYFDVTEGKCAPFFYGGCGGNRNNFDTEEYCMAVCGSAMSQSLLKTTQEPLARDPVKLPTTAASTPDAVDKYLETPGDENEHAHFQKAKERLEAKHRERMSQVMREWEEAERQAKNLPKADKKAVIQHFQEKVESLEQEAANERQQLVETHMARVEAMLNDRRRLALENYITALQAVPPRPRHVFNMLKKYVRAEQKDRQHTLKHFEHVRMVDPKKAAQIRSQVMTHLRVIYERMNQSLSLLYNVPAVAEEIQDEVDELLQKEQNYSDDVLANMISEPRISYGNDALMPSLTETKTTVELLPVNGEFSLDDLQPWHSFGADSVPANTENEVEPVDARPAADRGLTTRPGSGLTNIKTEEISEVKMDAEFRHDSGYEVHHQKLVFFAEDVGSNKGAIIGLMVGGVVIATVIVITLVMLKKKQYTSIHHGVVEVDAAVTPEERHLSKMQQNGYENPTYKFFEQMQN
method.notes: Inhibition of amyloid beta (1 to 42) (unknown origin) self aggregation at 25 uM after 24 hrs by thioflavin-T fluorescence method relative to control
Outcome: class 1 for inhibition of at least 30%; class 0 for anything lower.

>>> class_assignment("CCN(CC)c1cc(/C=C2\\OC(=O)c3cc(OC)c(OC)cc32)ccc1O")
"class 0"
>>> class_assignment("CCN(CC)c1ccc(/C=C2/OC(=O)c3cc(OC)c(OC)cc32)cc1O")
"class 0"
>>> class_assignment("COc1cc2c(cc1OC)/C(=C/c1ccc(N3CCOCC3)c(O)c1)OC2=O")
"class 0"
>>> class_assignment("COc1cc2c(cc1OC)/C(=C/c1ccc(O)c(N3CCCCC3)c1)OC2=O")
"class 1"
>>> class_assignment("COc1cc2c(cc1OC)C(Cc1ccc(N3CCCCC3)c(O)c1)OC2=O (stereo unspecified)")
"class 0"
>>> class_assignment("COc1cc2c(cc1OC)C(Cc1ccc(N3CCCC3)c(O)c1)OC2=O (stereo unspecified)")
"class 1"
>>> class_assignment("COc1cc2c(cc1OC)/C(=C\\c1ccc(N3CCOCC3)c(O)c1)OC2=O")
"class 0"
>>> class_assignment("COc1cc2c(cc1OC)/C(=C/c1ccc(N3CCCC3)c(O)c1)OC2=O")
"class 0"
>>> class_assignment("CCN(CC)c1ccc(/C=C2\\OC(=O)c3cc(OC)c(OC)cc32)cc1O")
"class 0"
